- assay-comment: Stability in cryopreserved hepatocytes, dog
- particulars: dog
AUC reference
measurement-name: AUC (µmol·min/L)

molecule	measurement-name	measurement
CCCCCC(CCC1C(O)CC2Cc3c(cccc3OCC(=O)O)CC21)OC(=O)C(N)CCCCN (centres unmarked)	AUC	12.78
CCCCCC(CCC1C(O)CC2Cc3c(cccc3OCC(=O)O)CC21)OC(=O)CO (centres unmarked)	AUC	54.94
CCCCCC(CCC1C(O)CC2Cc3c(cccc3OCC(=O)O)CC21)OC(=O)COc1ccc(OC(F)(F)F)cc1 (centres unmarked)	AUC	54.06
CCCCCC(CCC1C(O)CC2Cc3c(cccc3OCC(=O)O)CC21)OC(=O)C(C)(C)C (centres unmarked)	AUC	19.88
CCCCCC(CCC1C(O)CC2Cc3c(cccc3OCC(=O)O)CC21)OC(=O)c1ccccc1O (centres unmarked)	AUC	0.44
CCCCCC(O)CCC1C(O)CC2Cc3c(cccc3OCC(=O)NCC(=O)O)CC21 (centres unmarked)	AUC	0.00
CCCCCC(CCC1C(O)CC2Cc3c(cccc3OCC(=O)O)CC21)OP(=O)(O)O (centres unmarked)	AUC	62.94
CCCCCC(CCC1C(OC(=O)OC)CC2Cc3c(cccc3OCC(=O)O)CC21)OC(=O)OC (centres unmarked) [Prodrug LXXI, treprostinil dicarbonate]	AUC	41.47

---

- assay-comment: Stability in liver microsomes, dog

compound	endpoint-unit	Trep Concentration 0 min
CCCCCC(CCC1C(O)CC2Cc3c(cccc3OCC(=O)O)CC21)OC(=O)C(C)N (centres unmarked) [XXXI]	µM	0.134
CCCCCC(CCC1C(O)CC2Cc3c(cccc3OCC(=O)O)CC21)OC(=O)OCC(=O)O (centres unmarked) [XXXIX]	µM	0
CCCCCC(CCC1C(O)CC2Cc3c(cccc3OCC(=O)O)CC21)OC(=O)C(C)(C)C (centres unmarked) [XLIX]	µM	0.17
CCCCCC(CCC1C(O)CC2Cc3c(cccc3OCC(=O)O)CC21)OC(C)=O (centres unmarked) [XLIII]	µM	0.964
CCCCCC(O)CCC1C(OC(=O)CCC(=O)O)CC2Cc3c(cccc3OCC(=O)O)CC21 (centres unmarked) [XXII]	µM	0
CCCCCC(CCC1C(O)CC2Cc3c(cccc3OCC(=O)O)CC21)OC(=O)C12CC3CC(CC(C3)C1)C2 (centres unmarked) [LXIX]	µM	0.517
CCCCCC(CCC1C(O)CC2Cc3c(cccc3OCC(=O)O)CC21)OC(=O)c1ccc(C)cc1 (centres unmarked) [XLVIII]	µM	0.119
CCCCCC(CCC1C(O)CC2Cc3c(cccc3OCC(=O)O)CC21)OC(=O)NCC(=O)O (centres unmarked) [XXXVIII]	µM	0
CCCCCC(CCC1C(O)CC2Cc3c(cccc3OCC(=O)O)CC21)OC(=O)c1ccc(C(F)(F)F)cc1 (centres unmarked) [LXII]	µM	0.127
CCCCCC(CCC1C(O)CC2Cc3c(cccc3OCC(=O)O)CC21)Oc1ccccc1C(=O)O (centres unmarked) [LVI]	µM	0
CCCCCC(CCC1C(O)CC2Cc3c(cccc3OCC(=O)O)CC21)OC(=O)c1ccc(OC(F)(F)F)cc1 (centres unmarked) [LXIII]	µM	0.104
CCCCCC(CCC1C(O)CC2Cc3c(cccc3OCC(=O)O)CC21)OC(=O)COc1ccc(OC(F)(F)F)cc1 (centres unmarked) [LXIV]	µM	0.453
CCCCCC(CCC1C(O)CC2Cc3c(cccc3OCC(=O)O)CC21)OC(=O)COc1ccc(O)cc1 (centres unmarked) [LIV]	µM	0.307
CCCCCC(CCC1C(O)CC2Cc3c(cccc3OCC(=O)O)CC21)OCCN1CCOCC1 (centres unmarked) [L]	µM	0.00302
CCCCCC(CCC1C(O)CC2Cc3c(cccc3OCC(=O)O)CC21)OC(=O)CC (centres unmarked) [LV]	µM	0.971
CCCCCC(CCC1C(O)CC2Cc3c(cccc3OCC(=O)O)CC21)OC(=O)CCN (centres unmarked) [XXXVII]	µM	0.0163
CCCCCC(CCC1C(O)CC2Cc3c(cccc3OCC(=O)O)CC21)OC(=O)OCC (centres unmarked) [XVI]	µM	0.66
